B1: Poly(rC)-binding protein 1, residues 278 to 350; numbered along this chain, Q15365 (parent)
chain: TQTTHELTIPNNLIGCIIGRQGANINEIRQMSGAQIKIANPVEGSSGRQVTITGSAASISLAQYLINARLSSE

Variants of: B1
Assay: abundance fitness (aPCA) (normalised: wild type 0, dead -1); higher = more abundant; growth selection in yeast, the domain comes from the species named
Details: Homo sapiens
VALUE KIND: abundance fitness
Hey, just send me the number, nothing else.

I66W -1.2
K37V -0.032
R48Q -0.257
A34G -0.597
R69H -0.405
R29Y -0.55
S71L -0.184
N24S -0.033
A23F 0.044
Q63F -0.175

Next item in the queue.
Give the measured abundance fitness for E6F
-0.088
